- tested target: T1, human CD8αα homodimer, recombinant protein (Acro Biosystems) (human, UniProt P01732 22-182)
- T1 construct: also called CD8αα antigen; biotinylated CD8α recombinant protein (CDA-H82E3)
- T1 sequence (P01732 22-182 limits assumed): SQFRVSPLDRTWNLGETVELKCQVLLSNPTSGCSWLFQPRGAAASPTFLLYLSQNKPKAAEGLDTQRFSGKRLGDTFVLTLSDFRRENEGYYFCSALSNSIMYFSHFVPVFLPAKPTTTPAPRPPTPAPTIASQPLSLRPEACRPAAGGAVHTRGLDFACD
- measurement description: BLI kinetics, F(ab) on biotinylated CD8α (SA-XT sensor), 1:1 fit, 30 °C
measured parameter: kon (M⁻¹ s⁻¹)
Number in M⁻¹ s⁻¹, nothing else.

Value of kon reported for the binder CBD1033 Fab (h1017-H2 / h1017-L2) (Fab, V domains shown, Expressed as F(ab) fragment; also called CBD1033 Fab molecule) VH: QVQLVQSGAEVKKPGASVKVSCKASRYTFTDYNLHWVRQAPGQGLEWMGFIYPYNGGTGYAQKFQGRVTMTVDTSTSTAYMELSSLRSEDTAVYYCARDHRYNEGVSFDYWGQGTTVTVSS VL: DIQLTQSPSSLSASVGDRATITCRASESVDGFGNSFMNWYQQKPGKAPKLLIYLASNLESGVPSRFSGSGSGTDFTLTISSVQPEDFATYYCQQNNEDPYTFGQGTKLEIK is 44700

Measured kon of CBD1035 (Fab, V domains shown, also called h1017-H3/L2 F(ab)) VH: QVQLVQSGAEVKKPGASVKISCKASRYTFTDYNLHWVRQAPGQGLEWIGFIYPYNGGTGYAQKFQGRATLTVDTSTSTAYMELSSLRSEDTAVYYCARDHRYNEGVSFDYWGQGTTLTVSS VL: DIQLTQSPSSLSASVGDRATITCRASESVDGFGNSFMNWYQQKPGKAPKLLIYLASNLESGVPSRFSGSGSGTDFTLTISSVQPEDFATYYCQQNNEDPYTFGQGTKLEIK : 46900

Quick note, kon for CBD1036 (Fab, V domains shown, also called h1017-H3/L3 F(ab)) VH: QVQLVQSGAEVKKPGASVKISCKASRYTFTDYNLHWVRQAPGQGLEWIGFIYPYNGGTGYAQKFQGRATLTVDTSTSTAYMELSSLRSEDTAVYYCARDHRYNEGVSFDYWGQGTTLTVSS VL: DIQLTQSPSSLSASVGDRATITCRASESVDGFGNSFMNWYQQKPGKAPKLLIYLASNLESGVPSRFSGSGSRTDFTLTISSVQPEDFATYYCQQNNEDPYTFGQGTKLEIK landed at 33700
